# MEASURED_TARGET: CDK2/cyclin A2 (Homo sapiens, UniProt P24941)
# ASSAY_EXPLANATION: Human CDK2/cyclin A2 inhibitory activity (QS S Assist CDK2/Cyclin A2_FP Kit, IMAP fluorescent polarization)
# CONDITION_SUMMARY: read-out: CDK2 Activity symbol
MEASURE_NAME: IC50

{"INPUT_SMILES": "C[C@@H](O)c1cc2cnc(Nc3ccc4c(n3)CCN(C(=O)CN3CCC(O)CC3)C4)nc2c(N2C3CCC2CC3)n1", "MEASURE_NAME": "IC50", "EXPERIMENTAL_RESULT": "≥ 100 nM"}
{"INPUT_SMILES": "C[C@@H](O)c1cc2cnc(Nc3ccc4c(n3)CCN(C(=O)CN3CC5(COC5)C3)C4)nc2c(N2CCCCC2)n1", "MEASURE_NAME": "IC50", "EXPERIMENTAL_RESULT": "≥ 100 nM"}
{"INPUT_SMILES": "C[C@@H](O)c1cc2cnc(Nc3ccc(OC4CCNCC4)cn3)nc2c(N2CC[C@@H](F)C2)n1", "MEASURE_NAME": "IC50", "EXPERIMENTAL_RESULT": "≥ 100 nM"}
{"INPUT_SMILES": "C[C@@H](O)c1cc2cnc(Nc3ccc(C(=O)N(C)CCN(C)C)cn3)nc2c(N2CCCCC2)n1", "MEASURE_NAME": "IC50", "EXPERIMENTAL_RESULT": "≥ 100 nM"}
{"INPUT_SMILES": "C[C@@H](O)c1cc2cnc(Nc3ccc4c(n3)CCN(CCCO)C4)nc2c(N2CCCCC2)n1", "MEASURE_NAME": "IC50", "EXPERIMENTAL_RESULT": "≥ 100 nM"}
{"INPUT_SMILES": "C[C@@H](O)c1cc2cnc(Nc3ccc4c(n3)CCN(C(=O)CN3CC5(CC(O)C5)C3)C4)nc2c(N2CCCCC2)n1", "MEASURE_NAME": "IC50", "EXPERIMENTAL_RESULT": "≥ 100 nM"}
{"INPUT_SMILES": "C[C@@H](O)c1cc2cnc(Nc3ccc4c(n3)CCN(C3CNC3)C4)nc2c(N2CCCCC2)n1", "MEASURE_NAME": "IC50", "EXPERIMENTAL_RESULT": "≥ 100 nM"}

----------
Listed compounds paired with reported pIC50
# MEASURED_TARGET: CDK4/cyclin D3 (Homo sapiens, UniProt P11802)
# Sequence (P11802 whole entry): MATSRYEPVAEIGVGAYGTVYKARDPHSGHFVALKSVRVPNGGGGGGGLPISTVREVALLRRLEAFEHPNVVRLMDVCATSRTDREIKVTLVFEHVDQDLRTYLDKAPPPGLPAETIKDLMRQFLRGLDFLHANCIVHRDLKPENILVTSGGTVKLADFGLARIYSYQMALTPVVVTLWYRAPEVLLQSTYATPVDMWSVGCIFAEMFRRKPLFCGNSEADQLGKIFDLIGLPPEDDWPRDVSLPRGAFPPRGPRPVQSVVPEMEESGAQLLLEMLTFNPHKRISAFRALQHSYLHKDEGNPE
# Sequence (P30281 whole entry partner): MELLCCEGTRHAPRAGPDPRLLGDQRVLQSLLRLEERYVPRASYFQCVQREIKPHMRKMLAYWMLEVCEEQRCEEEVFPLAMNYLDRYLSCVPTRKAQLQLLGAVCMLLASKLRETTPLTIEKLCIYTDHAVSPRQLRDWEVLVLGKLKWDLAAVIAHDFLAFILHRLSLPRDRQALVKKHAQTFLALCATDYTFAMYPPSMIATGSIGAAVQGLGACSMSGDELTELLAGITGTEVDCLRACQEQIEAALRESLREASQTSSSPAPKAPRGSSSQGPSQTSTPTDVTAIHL
# ASSAY_EXPLANATION: Human CDK4/cyclin D3 inhibitory activity (QS S Assist CDK4/Cyclin D3_FP Kit, IMAP fluorescent polarization)
# CONDITION_SUMMARY: read-out: CDK4 Activity symbol
pIC50: −log10 of the molar value.

{"INPUT_SMILES": "C[C@@H](O)c1cc2cnc(Nc3ccc(O[C@H]4CCCN(CCO)C4)cn3)nc2c(N2CC[C@@H](F)C2)n1", "pIC50": "> 8.00"}
{"INPUT_SMILES": "C[C@H](CO)c1cc2cnc(Nc3ccc(CN4CCN(CCO)CC4)cn3)nc2c(N2CCCCC2)n1", "pIC50": "7.00 to 8.00"}
{"INPUT_SMILES": "Cc1nc(Nc2ncc3cc([C@@H](C)O)nc(N4CCCCC4)c3n2)ccc1N1CCNCC1", "pIC50": "> 8.00"}
{"INPUT_SMILES": "C[C@@H](O)c1cc2cnc(Nc3ccc4c(n3)CCN(C(=O)C3CCN(C)CC3)C4)nc2c(N2CCCCC2)n1", "pIC50": "> 8.00"}
{"INPUT_SMILES": "C[C@@H](O)c1cc2cnc(Nc3ccc(CN4CCN(C)CC4)cn3)nc2c(N2CCC2)n1", "pIC50": "7.00 to 8.00"}

----------
# MEASURED_TARGET: CDK4/cyclin D3 (Homo sapiens)
# ASSAY_EXPLANATION: Human CDK4/cyclin D3 inhibitory activity (QS S Assist CDK4/Cyclin D3_FP Kit, IMAP fluorescent polarization)
# CONDITION_SUMMARY: read-out: CDK4 Activity symbol
pIC50: −log10 of the molar value.
MEASURE_NAME: pIC50

{"INPUT_SMILES": "O=C1CNCCCN1c1ccc(Nc2ncc3cc(C4COC4)nc(N4CCCCC4)c3n2)nc1", "MEASURE_NAME": "pIC50", "EXPERIMENTAL_RESULT": "> 8.00"}
{"INPUT_SMILES": "O=C1CCNCCN1c1ccc(Nc2ncc3cc(CO)nc(N4CCCCC4)c3n2)nc1", "MEASURE_NAME": "pIC50", "EXPERIMENTAL_RESULT": "> 8.00"}
{"INPUT_SMILES": "C[C@@H](O)c1cc2cnc(Nc3ccc(CN4CCN(CCO)CC4)cn3)nc2c(N2CCCCC2)n1", "MEASURE_NAME": "pIC50", "EXPERIMENTAL_RESULT": "> 8.00"}
{"INPUT_SMILES": "C[C@@H](O)c1cc2cnc(Nc3ccc4c(n3)CCN(C(=O)Cn3nccn3)C4)nc2c(N2CCCCC2)n1", "MEASURE_NAME": "pIC50", "EXPERIMENTAL_RESULT": "7.00 to 8.00"}

----------
# MEASURED_TARGET: CDK4/cyclin D3 (Homo sapiens, UniProt P11802)
# ASSAY_EXPLANATION: Human CDK4/cyclin D3 inhibitory activity (QS S Assist CDK4/Cyclin D3_FP Kit, IMAP fluorescent polarization)
# CONDITION_SUMMARY: read-out: CDK4 Activity symbol
Listed compounds paired with reported IC50

{"COMPOUND": "C[C@@H](O)c1cc2cnc(Nc3ccc(CN4CCN(CCO)CC4)cn3)nc2c(N2CCC(F)CC2)n1 [Compound 78]", "MEASURED_TARGET": "CDK4/cyclin D3 (Homo sapiens, UniProt P11802)", "IC50": "< 10 nM"}
{"COMPOUND": "C[C@@H](O)c1cc2cnc(Nc3ccc(CN4CCN(CCO)CC4)cn3)nc2c(N2CCCCCC2)n1 [Compound 59]", "MEASURED_TARGET": "CDK4/cyclin D3 (Homo sapiens, UniProt P11802)", "IC50": "< 10 nM"}
{"COMPOUND": "CC[C@H](O)c1cc2cnc(Nc3ccc(N4CCNCC4=O)cn3)nc2c(N2CCC[C@H]2C)n1 [Compound 246]", "MEASURED_TARGET": "CDK4/cyclin D3 (Homo sapiens, UniProt P11802)", "IC50": "< 10 nM"}
{"COMPOUND": "COC(C)c1cc2cnc(Nc3ccc(CN4CCNCC4)cn3)nc2c(N2CCC3CCNC3C2)n1 (stereo not drawn) [Compound 44]", "MEASURED_TARGET": "CDK4/cyclin D3 (Homo sapiens, UniProt P11802)", "IC50": "< 10 nM"}
{"COMPOUND": "COC(=O)c1cc2cnc(Nc3ccc(N4CCNCC4)cn3)nc2c(N2CCCCC2)n1 [Compound 25]", "MEASURED_TARGET": "CDK4/cyclin D3 (Homo sapiens, UniProt P11802)", "IC50": "10 to 100 nM"}
{"COMPOUND": "CC[C@H](O)c1cc2cnc(Nc3ccc(CN4CCN(CCO)CC4)cn3)nc2c(N2CCC[C@H]2C)n1 [Compound 248]", "MEASURED_TARGET": "CDK4/cyclin D3 (Homo sapiens, UniProt P11802)", "IC50": "< 10 nM"}
{"COMPOUND": "CC1CCC(C)N1c1nc([C@@H](C)O)cc2cnc(Nc3ccc(CN4CCN(C)CC4)cn3)nc12 (stereo partly drawn) [Compound 140]", "MEASURED_TARGET": "CDK4/cyclin D3 (Homo sapiens, UniProt P11802)", "IC50": "< 10 nM"}
{"COMPOUND": "OCCc1cc2cnc(Nc3ccc4c(n3)CCN(CCO)C4)nc2c(N2CCCCC2)n1 [Compound 109]", "MEASURED_TARGET": "CDK4/cyclin D3 (Homo sapiens, UniProt P11802)", "IC50": "< 10 nM"}
{"COMPOUND": "CN1CCN(c2ccc(Nc3ncc4cc(C(F)F)nc(N5CCOCC5)c4n3)nc2)CC1 [Compound 4]", "MEASURED_TARGET": "CDK4/cyclin D3 (Homo sapiens, UniProt P11802)", "IC50": "10 to 100 nM"}
{"COMPOUND": "Cc1nc(Nc2ncc3cc([C@@H](C)O)nc(N4CCCCC4)c3n2)ccc1N1CCN(CCO)CC1 [Compound 88]", "MEASURED_TARGET": "CDK4/cyclin D3 (Homo sapiens, UniProt P11802)", "IC50": "< 10 nM"}
{"COMPOUND": "C[C@@H](O)c1cc2cnc(Nc3ccc(N4CCNCC4=O)cn3)nc2c(-c2ccccc2)n1 [Compound 191]", "MEASURED_TARGET": "CDK4/cyclin D3 (Homo sapiens, UniProt P11802)", "IC50": "10 to 100 nM"}
{"COMPOUND": "C[C@@H](O)c1cc2cnc(Nc3ccc(CN4CCN(C)[C@@H](C)C4)cn3)nc2c(N2CCCCC2)n1 [Compound 188]", "MEASURED_TARGET": "CDK4/cyclin D3 (Homo sapiens, UniProt P11802)", "IC50": "< 10 nM"}
{"COMPOUND": "C[C@@H](O)c1cc2cnc(Nc3ccc(CN4CCN(C)CC4)cn3)nc2c(N2CCC[C@@H]2C)n1 [Compound 137]", "MEASURED_TARGET": "CDK4/cyclin D3 (Homo sapiens, UniProt P11802)", "IC50": "10 to 100 nM"}
{"COMPOUND": "CC(C)(O)c1cc2cnc(Nc3ccc(N4CCNCC4)cn3)nc2c(N2CCOCC2)n1 [Compound 37]", "MEASURED_TARGET": "CDK4/cyclin D3 (Homo sapiens, UniProt P11802)", "IC50": "10 to 100 nM"}
{"COMPOUND": "C[C@@H](O)c1cc2cnc(Nc3ccc4c(n3)CCN(C(=O)[C@H]3CCN(C)C3)C4)nc2c(N2C3CCC2CC3)n1 [Compound 225]", "MEASURED_TARGET": "CDK4/cyclin D3 (Homo sapiens, UniProt P11802)", "IC50": "< 10 nM"}
{"COMPOUND": "C[C@@H](O)c1cc2cnc(Nc3ccc4c(n3)CCN(C(=O)CNC3COC3)C4)nc2c(N2C3CCC2CC3)n1 [Compound 234]", "MEASURED_TARGET": "CDK4/cyclin D3 (Homo sapiens, UniProt P11802)", "IC50": "10 to 100 nM"}
{"COMPOUND": "C[C@@H](O)c1cc2cnc(Nc3ccc4c(n3)CCN(C(=O)CN3CC(F)C3)C4)nc2c(N2CCCCC2)n1 [Compound 269]", "MEASURED_TARGET": "CDK4/cyclin D3 (Homo sapiens, UniProt P11802)", "IC50": "< 10 nM"}
{"COMPOUND": "CC(O)c1cc2cnc(Nc3ccc(CN4CCN(C)CC4)cn3)nc2c(N2CCOCC2C)n1 (stereo not drawn) [Compound 291]", "MEASURED_TARGET": "CDK4/cyclin D3 (Homo sapiens, UniProt P11802)", "IC50": "< 10 nM"}
{"COMPOUND": "OCc1cc2cnc(Nc3ccc(N4CCNCC4)cn3)nc2c(-c2ccsc2)n1 [Compound 16]", "MEASURED_TARGET": "CDK4/cyclin D3 (Homo sapiens, UniProt P11802)", "IC50": "< 10 nM"}
{"COMPOUND": "C[C@@H](O)c1cc2cnc(Nc3ccc(CN4CCN(CCO)CC4)cn3)nc2c(N2CC[C@H](F)C2)n1 [Compound 181]", "MEASURED_TARGET": "CDK4/cyclin D3 (Homo sapiens, UniProt P11802)", "IC50": "10 to 100 nM"}
{"COMPOUND": "C[C@@H](O)c1cc2cnc(Nc3ccc(CN4CCN(C)CC4)cn3)nc2c(N2CC[C@H](F)C2)n1 [Compound 117]", "MEASURED_TARGET": "CDK4/cyclin D3 (Homo sapiens, UniProt P11802)", "IC50": "< 10 nM"}
{"COMPOUND": "C[C@@H](O)c1cc2cnc(Nc3ccc4c(n3)CCN(C3COC3)C4)nc2c(N2CCCCC2)n1 [Compound 161]", "MEASURED_TARGET": "CDK4/cyclin D3 (Homo sapiens, UniProt P11802)", "IC50": "< 10 nM"}
{"COMPOUND": "C[C@@H](O)c1cc2cnc(Nc3ccc(N4CCN(C)CC4)nn3)nc2c(N2CCC(F)CC2)n1 [Compound 124]", "MEASURED_TARGET": "CDK4/cyclin D3 (Homo sapiens, UniProt P11802)", "IC50": "< 10 nM"}
{"COMPOUND": "Cc1nc(Nc2ncc3cc([C@@H](C)O)nc(N4C5CCC4COC5)c3n2)ccc1N1CCNCC1 [Compound 298]", "MEASURED_TARGET": "CDK4/cyclin D3 (Homo sapiens, UniProt P11802)", "IC50": "< 10 nM"}
{"COMPOUND": "C[C@@H](O)c1cc2cnc(Nc3ccc(N4CCNCC4=O)cn3)nc2c(N2CCC(F)CC2)n1 [Compound 90]", "MEASURED_TARGET": "CDK4/cyclin D3 (Homo sapiens, UniProt P11802)", "IC50": "< 10 nM"}
{"COMPOUND": "C[C@@H](O)c1cc2cnc(Nc3ccc(CN4CCN(CCO)CC4)cn3)nc2c(N2CCN(C)CC2)n1 [Compound 77]", "MEASURED_TARGET": "CDK4/cyclin D3 (Homo sapiens, UniProt P11802)", "IC50": "10 to 100 nM"}
{"COMPOUND": "CO[C@H](C)c1cc2cnc(Nc3ccc(N4CCN(C)CC4)nn3)nc2c(N2CCC(F)CC2)n1 [Compound 125]", "MEASURED_TARGET": "CDK4/cyclin D3 (Homo sapiens, UniProt P11802)", "IC50": "10 to 100 nM"}
{"COMPOUND": "C[C@@H](O)c1cc2cnc(Nc3ccc4c(n3)CCN(C3CN(CCO)C3)C4)nc2c(N2CCCCC2)n1 [Compound 176]", "MEASURED_TARGET": "CDK4/cyclin D3 (Homo sapiens, UniProt P11802)", "IC50": "< 10 nM"}
{"COMPOUND": "C[C@@H](O)c1cc2cnc(Nc3ccc4c(n3)CCN(C(=O)CN3CC(O)C3)C4)nc2c(N2C3CCC2CC3)n1 [Compound 229]", "MEASURED_TARGET": "CDK4/cyclin D3 (Homo sapiens, UniProt P11802)", "IC50": "< 10 nM"}
{"COMPOUND": "C[C@@H](O)c1cc2cnc(Nc3ccc4c(n3)CCN(C(=O)CN3CC5(COC5)C3)C4)nc2c(N2CCCCC2)n1 [Compound 266]", "MEASURED_TARGET": "CDK4/cyclin D3 (Homo sapiens, UniProt P11802)", "IC50": "< 10 nM"}

Origin of values: patent US11084814B2
